Quick list: IC50 per entry.
Target: human P2X3 receptor (Homo sapiens (Human), UniProt P56373)
Sequence (P56373 whole entry): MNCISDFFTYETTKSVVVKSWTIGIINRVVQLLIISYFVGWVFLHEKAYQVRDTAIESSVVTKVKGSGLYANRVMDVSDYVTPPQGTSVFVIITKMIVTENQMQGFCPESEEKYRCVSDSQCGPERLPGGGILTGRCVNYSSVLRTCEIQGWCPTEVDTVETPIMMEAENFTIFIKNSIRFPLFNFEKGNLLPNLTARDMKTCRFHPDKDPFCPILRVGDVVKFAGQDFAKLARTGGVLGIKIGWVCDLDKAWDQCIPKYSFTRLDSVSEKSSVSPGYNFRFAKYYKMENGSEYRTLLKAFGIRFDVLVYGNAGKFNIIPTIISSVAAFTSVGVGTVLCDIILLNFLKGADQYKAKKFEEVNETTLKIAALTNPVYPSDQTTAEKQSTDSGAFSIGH
Assay: Evaluation of human P2X3 receptor inhibitory activity (Fluo-3 calcium fluorescence, FDSS 3000, ATP stimulation);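 also: stimulus was 50 nM ATP with fluorescence followed for 3 min, and the response per well was peak post-ATP fluorescence divided by the reading at measurement start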
Assay type: cell-based
Details: C6BU-1 cells stably expressing human P2X3 receptor

Completed entries (count: 3):
# compound, IC50
measured = [
    ("CCn1c(=O)[nH]/c(=N\\c2ccc(Oc3cncc(C(=O)OC)c3)cc2)n(CC2CCC(C)(C)CC2)c1=O [Compound I-2204]", "28 nM"),
    ("CCn1c(=O)[nH]/c(=N\\c2ccc(Oc3cc(C(=O)O)n[nH]3)cc2)n(Cc2ccc(Cl)cc2)c1=O [Compound I-2194]", "52 nM"),
    ("COC(=O)[C@@H](C)Cn1c(=O)[nH]/c(=N\\c2cnc(OC3CCC3)c(Cl)c2)n(Cc2ccc(C)cc2)c1=O [Compound I-1398]", "25 nM"),
]

Short answer on human P2X3 receptor (Homo sapiens (Human), UniProt P56373) for C[C@H](C(=O)O)[C@@H](C)n1c(=O)[nH]/c(=N\c2ccc(OC3CCC3)cc2)n(Cc2ccc(Cl)cc2)c1=O [Compound I-1456] , IC50: 14 nM

Entry COC(=O)Cn1c(=O)[nH]/c(=N\c2ccc(OC(C)C)c(Cl)c2)n(Cc2ccc(Cl)cc2)c1=O [Compound I-0660] under human P2X3 receptor (Homo sapiens (Human), UniProt P56373) had IC50 of 11 nM

The reported IC50 value, human P2X3 receptor (Homo sapiens (Human), UniProt P56373), for CCOC(=O)CCn1c(=O)[nH]/c(=N\c2ccc(CC(C)C)c(OC)c2)n(Cc2ccc(C)cc2)c1=O [Compound I-1361] reads 15 nM

Entry COC(=O)[C@@H](C)Cn1c(=O)[nH]/c(=N\c2ccc(OC(C)C)cc2)n(Cc2ccc(F)cc2)c1=O [Compound I-0618] , tested on human P2X3 receptor (Homo sapiens (Human), UniProt P56373), has a reported IC50 of 121 nM

// data source = patent US9718790B2
